- EXPERIMENTAL PARAMETERS: buffer, pH 7.4
- Description: Lipophilicity, log K of the compound in 50 mM PBS at pH 7.4-10 to 60% methanol mixture by HPLC method
I'd appreciate it if you could supply log K values for the items below.
In your answer, state the number alone without any accompanying words.

Challenge: # query: log K of entry `O=C(C1CCCCC1)N(CCN1CCN(c2ccccc2)CC1)c1ccccn1`
Response given: 2.68

Challenge: # query: log K of entry `O=C(c1cnc2ccccc2n1)N(CCN1CC=C(c2ccccc2)CC1)c1ccccn1`
Response given: 3.33

Challenge: # query: log K of entry `O=C(c1cnc2ccccc2n1)N(CCN1CCN(c2ccccc2)CC1)c1ccccn1`
Response given: 3.06

Challenge: # query: log K of entry `O=C(c1cccc2ccccc12)N(CCN1CCN(c2ccccc2)CC1)c1ccccn1`
Response given: 3.27

Challenge: # query: log K of entry `O=C(c1ccc2ccccc2c1)N(CCN1CCN(c2ccccc2)CC1)c1ccccn1`
Response given: 3.48

Challenge: # query: log K of entry `COc1ccccc1N1CCN(CCN(C(=O)c2ccc3ccccc3c2)c2ccccn2)CC1`
Response given: 3.57

Challenge: # query: log K of entry `O=C(c1cccc2ccccc12)N(CCN1CC=C(c2ccccc2)CC1)c1ccccn1`
Response given: 4.07

Challenge: # query: log K of entry `O=C(c1ccc2ccccc2c1)N(CCN1CC=C(c2ccccc2)CC1)c1ccccn1`
Response given: 4.36

Challenge: # query: log K of entry `COc1ccccc1N1CCN(CCN(C(=O)c2cccc3ccccc23)c2ccccn2)CC1`
Response given: 3.26

Challenge: # query: log K of entry `COc1ccccc1N1CCN(CCN(C(=O)c2cnc3ccccc3n2)c2ccccn2)CC1`
Response given: 2.61

Challenge: # query: log K of entry `O=C(C1CCCCC1)N(CCN1CC=C(c2ccccc2)CC1)c1ccccn1`
Response given: 3.84
